Provenance of the data: patent US10954252B1

# Assay Details: Compound cytotoxicity, XTT-based colorimetric assay
# Type: cell-based
# Measurement Context: human, uninfected MT2 cells, Table 1a, day 4, XTT
Each entry below carries its reported CC50 at 4 days.

1) COc1cc(F)c2c(=O)n(-c3ccc(Cl)c4c(NS(C)(=O)=O)nn(C)c34)c([C@H](Cc3cc(F)cc(F)c3)NC(=O)Cn3ccc(C4CC4)n3)nc2c1 (single isomer, unassigned) [Example 189]: > 1000 nM

Proceeding to the next molecule to report its CC50 at 4 days.
## Task Quote CC50 at 4 days reported for COc1cc(F)c2c(=O)n(-c3ccc(Cl)c4c(NS(C)(=O)=O)nn(C)c34)c([C@H](Cc3cc(F)cc(F)c3)NC(=O)Cn3nc(C(F)F)c4c3C(F)(F)[C@@H]3C[C@H]43)nc2c1 (mixture of isomers) [Example 185] please.
## Result > 1000 nM

###

# Assay Details: Compound cytotoxicity, XTT-based colorimetric assay
# Assay type: cell-based
# Measurement Context: human, uninfected MT2 cells, Table 1, day 4, XTT
# Experimental: Compound cytotoxicity and the corresponding CC50 values were determined using the same protocol as described in the antiviral assay except that uninfected cells were used. Cytotoxicity was assessed on day 4 in uninfected MT2 cells by using a XTT (2,3-bis[2-Methoxy-4-nitro-5-sulfophenyl]-2H-tetrazolium-5-carboxyanilide inner salt)-based colorimetric assay (Sigma-Aldrich, St Louis, Mo.). Biological data for select compounds of the invention are contained in Table 1 and Table 1a
Measured Metric: CC50 at 4 days

1. Cn1nc(NS(C)(=O)=O)c2c(Cl)ccc(-c3cc4ccccc4nc3C(Cc3cc(F)cc(F)c3)NC(=O)Cn3nc(C(F)F)c4c3C(F)(F)[C@@H]3C[C@H]43)c21 (single isomer, unassigned): > 10 µM
2. Cn1nc(NS(C)(=O)=O)c2c(Cl)ccc(-n3c([C@H](Cc4cc(F)cc(F)c4)NC(=O)Cn4nc(C(F)F)c5c4C(F)(F)C4CC54)nc4nc(Cl)ccc4c3=O)c21 (stereo in doubt): > 3.3 µM
3. O=C(Cn1nc(C(F)F)c2c1C(F)(F)[C@@H]1C[C@H]21)NC(Cc1cc(F)cc(F)c1)c1nc2cn[nH]c2cc1-c1ccc(C2CC2)cc1 (single isomer, unassigned): 4.2 µM

## Task Output CC50 at 4 days of O=C(Cn1nc(C(F)F)c2c1C(F)(F)[C@@H]1C[C@H]21)N[C@@H](Cc1cc(F)cc(F)c1)c1nc2cn[nH]c2cc1-c1ccc(Cl)c(C(=O)NS(=O)(=O)C2CC2)c1
## Result > 10 µM

## Task Identify measured CC50 at 4 days associated with O=C(Cn1nc(C(F)F)c2c1C(F)(F)[C@@H]1C[C@H]21)N[C@@H](Cc1cc(F)cc(F)c1)c1nc2cn[nH]c2cc1-c1ccc2c(c1)C(=O)NC2
## Result > 10 µM

###

# Assay Details: Compound cytotoxicity, XTT-based colorimetric assay
# Format: cell-based
# Measurement Context: human, uninfected MT2 cells, Table 1, day 4, XTT
Measured Metric: CC50 at 4 days

1. Cn1nc(NS(C)(=O)=O)c2c(Cl)ccc(-n3c([C@H](Cc4cc(F)cc(F)c4)NC(=O)Cn4nc(C(F)F)c5c4C(F)(F)[C@@H]4C[C@H]54)nc4ccccc4c3=O)c21 (single isomer, unassigned) [Example 16]: > 10 µM
2. Cn1nc(NS(C)(=O)=O)c2c(Cl)ccc(-c3c(C(Cc4cc(F)cc(F)c4)NC(=O)Cn4nc(C(F)F)c5c4C(F)(F)[C@@H]4C[C@H]54)ncc4[nH]cnc34)c21 (single isomer, unassigned) [Example 7.3]: > 10 µM

## Task Specify CC50 at 4 days for Cn1nc(NS(C)(=O)=O)c2c(Cl)ccc(-n3c(C(Cc4cc(F)cc(F)c4)NC(=O)Cn4nc(C(F)F)c5c4C(F)(F)C4CC54)nc4nc(Cl)ccc4c3=O)c21 (stereo in doubt) [Example 12.1] and stop.
## Result > 10 µM

## Task Report measured CC50 at 4 days; entry is O=C(Cn1nc(C(F)F)c2c1C(F)(F)[C@@H]1C[C@H]21)N[C@@H](Cc1cc(F)cc(F)c1)c1nc2cn[nH]c2cc1-c1ccc(F)c(C(=O)O)c1 [Example 10.25]
## Result > 10 µM

## Task Please indicate CC50 at 4 days recorded for CS(=O)(=O)NC(=O)c1cc(-c2cc3[nH]ncc3nc2[C@H](Cc2cc(F)cc(F)c2)NC(=O)Cn2nc(C(F)F)c3c2C(F)(F)[C@@H]2C[C@H]32)ccc1F [Example 10.26]
## Result > 10 µM

## Task Identify the reported CC50 at 4 days for the following entry. Cn1nc(NS(C)(=O)=O)c2c(Cl)ccc(-c3cc4[nH]ncc4nc3[C@H](Cc3cc(F)cc(F)c3)NC(=O)Cc3c[nH]c4ccc(O)cc34)c21 [Example 10.22]
## Result > 10 µM

## Task Assign CC50 at 4 days to the following record: CS(=O)(=O)NC(=O)c1cc(-c2cc3[nH]ncc3nc2[C@H](Cc2cc(F)cc(F)c2)NC(=O)Cn2nc(C(F)F)c3c2C(F)(F)[C@@H]2C[C@H]32)ccc1Cl [Example 10.18]
## Result > 10 µM

## Task Dear colleague, please send me the reported CC50 at 4 days for Cn1nc(NS(C)(=O)=O)c2c(Cl)ccc(-n3c([C@H](Cc4cc(F)cc(F)c4)NC(=O)Cn4nc(C(F)F)c5c4C(F)(F)C4CC54)nc4nc(C(F)(F)F)ccc4c3=O)c21 (stereo in doubt) [Example 11.2] when you can.
## Result > 10 µM

## Task Report CC50 at 4 days for CNC(=O)c1cc(-c2cc3[nH]ncc3nc2[C@H](Cc2cc(F)cc(F)c2)NC(=O)Cn2nc(C(F)F)c3c2C(F)(F)[C@@H]2C[C@H]32)ccc1F [Example 10.7]
## Result > 10 µM

## Task Identify measured CC50 at 4 days associated with COC(=O)c1cccc(-c2cc3[nH]ncc3nc2[C@H](Cc2cc(F)cc(F)c2)NC(=O)Cn2nc(C(F)F)c3c2C(F)(F)[C@@H]2C[C@H]32)c1 [Example 10.8]
## Result > 10 µM

## Task Indicate its recorded CC50 at 4 days; the molecule in question is Cn1nc(NS(C)(=O)=O)c2c(Cl)ccc(-c3cc4[nH]ncc4nc3[C@@H](Cc3cc(F)cc(F)c3)NC(=O)Cn3nc(C(F)F)c4c3C(F)(F)[C@@H]3C[C@H]43)c21 [Example 3.8]
## Result 10.2 µM

## Task Could you please provide reported CC50 at 4 days for NC(=O)c1cc(-c2cc3[nH]ncc3nc2[C@H](Cc2cc(F)cc(F)c2)NC(=O)Cn2nc(C(F)F)c3c2C(F)(F)[C@@H]2C[C@H]32)ccc1F [Example 10.6] ? Thanks!
## Result > 10 µM

###

CC50 at 4 days values by entry
# Assay Details: Compound cytotoxicity, XTT-based colorimetric assay
# Type: cell-based
# Measurement Context: human, uninfected MT2 cells, Table 1a, day 4, XTT

1. CC(C)c1ccc(-c2cc3[nH]ccc3nc2[C@@H](Cc2cc(F)cc(F)c2)NC(=O)Cn2nc(C(F)F)c3c2C(F)(F)[C@@H]2C[C@H]32)cn1: > 3160 nM
2. CC(C)c1ccc(-n2c([C@H](Cc3cc(F)cc(F)c3)NC(=O)Cn3nc(C(F)F)c4c3C(F)(F)[C@@H]3C[C@H]43)nc3ncccc3c2=O)cc1: 1580 nM
3. Cn1nc(NS(C)(=O)=O)c2c(Cl)ccc(-n3c([C@H](Cc4cc(F)cc(F)c4)NC(=O)Cn4ccc(N)n4)nc4ncccc4c3=O)c21 (single isomer, unassigned): > 1000 nM
4. COc1ccc2c(=O)n(-c3ccc(Cl)c4c(NS(=O)(=O)C5CC5)nn(CC(F)F)c34)c([C@H](Cc3cc(F)cc(F)c3)NC(=O)Cn3nc(C(F)F)c4c3C(F)(F)[C@@H]3C[C@H]43)nc2c1 (single isomer, unassigned): > 1000 nM

Here's the next entry for you.
## Task Fill in reported CC50 at 4 days for this entry: Cn1nc(NS(C)(=O)=O)c2c(Cl)ccc(-n3c([C@H](Cc4cc(F)cc(F)c4)NC(=O)Cn4nc(C(F)F)c5c4C(F)(F)[C@@H]4C[C@H]54)nc4cc(Cl)ccc4c3=O)c21 (mixture of isomers)
## Result > 1000 nM

###

Listing: CC50 of selected molecules
# Tested on: uninfected MT2 cells
# Assay Details: Compound cytotoxicity, XTT-based colorimetric assay
# Type: cell-based
# Measurement Context: Table 1a, day 4, XTT

1. Cn1nc(NS(C)(=O)=O)c2c(Cl)ccc(-n3c([C@H](Cc4cc(F)cc(F)c4)NC(=O)Cn4ccc(C5CC5)n4)nc4cccc(F)c4c3=O)c21 (single isomer, unassigned): > 1 µM
2. CS(=O)(=O)Nc1nn(CC(F)(F)F)c2c(-c3cc4[nH]ncc4nc3[C@H](Cc3cc(F)cc(F)c3)NC(=O)Cn3nc(C(F)F)c4c3C(F)(F)[C@@H]3C[C@H]43)ccc(Cl)c12 (single isomer, unassigned): > 1 µM

## Task Write down CC50 measured for item Cn1nc(NS(C)(=O)=O)c2c(Cl)ccc(-n3c([C@H](Cc4cc(F)cc(F)c4)NC(=O)Cn4nc(C(F)F)c5c4C(F)(F)[C@@H]4C[C@H]54)nc4cccc(C(F)(F)F)c4c3=O)c21 (single isomer, unassigned)
## Result > 1 µM
